# test_method_notes: Selectivity index, ratio of IC50 for human HeLa cells to ratio of IC50 for Toxoplasma gondii RH tachyzoites
# Format: toxicity
# test_context: HeLa cells versus Toxoplasma gondii RH tachyzoites, read-out: Ratio IC50
Label true (1) when selectivity ratio is strictly below 2; at or above that, label false (0).

1) COc1ccc(C[C@H]2COC(=O)[C@@H]2Cc2ccc(OCc3cn(-c4ccccc4)nn3)c(OC)c2)cc1OC :: true (1)
2) COc1ccc(C[C@H]2COC(=O)[C@@H]2Cc2ccc(OCC(=O)Nc3ccccc3)c(OC)c2)cc1OC :: false (0)
3) COc1ccc(C[C@H]2COC(=O)[C@@H]2Cc2ccc(OCc3cn(-c4ccc(Cl)cc4)nn3)c(OC)c2)cc1OC :: true (1)
4) COc1ccc(C[C@H]2COC(=O)[C@@H]2Cc2ccc(OC(=O)CCC(=O)N3CCCCC3)c(OC)c2)cc1OC :: false (0)
5) COc1ccc(C[C@H]2COC(=O)[C@@H]2Cc2ccc(OC(=O)CCC(=O)N3CCCC3)c(OC)c2)cc1OC :: true (1)
6) COc1cc(C[C@H]2C(=O)OC[C@@H]2Cc2ccc(OC)c(OC)c2)ccc1O :: true (1)
7) COC(=O)[C@H](CCSC)NC(=O)CCC(=O)Oc1ccc(C[C@H]2C(=O)OC[C@@H]2Cc2ccc(OC)c(OC)c2)cc1OC :: true (1)
8) COC(=O)CNC(=O)CCC(=O)Oc1ccc(C[C@H]2C(=O)OC[C@@H]2Cc2ccc(OC)c(OC)c2)cc1OC :: true (1)
9) CCN(CC)C(=O)CCC(=O)Oc1ccc(C[C@H]2C(=O)OC[C@@H]2Cc2ccc(OC)c(OC)c2)cc1OC :: true (1)
10) COC(=O)[C@@H](Cc1ccccc1)NC(=O)CCC(=O)Oc1ccc(C[C@H]2C(=O)OC[C@@H]2Cc2ccc(OC)c(OC)c2)cc1OC :: true (1)
11) COC(=O)[C@@H]1CCCN1C(=O)CCC(=O)Oc1ccc(C[C@H]2C(=O)OC[C@@H]2Cc2ccc(OC)c(OC)c2)cc1OC :: false (0)
12) COc1ccc(C[C@H]2COC(=O)[C@@H]2Cc2ccc(OCC(=O)Nc3ccc(C)cc3)c(OC)c2)cc1OC :: true (1)
13) COc1ccc(C[C@H]2COC(=O)[C@@H]2Cc2ccc(OCc3cn(Cc4ccccc4Cl)nn3)c(OC)c2)cc1OC :: false (0)
14) COc1ccc(C[C@H]2COC(=O)[C@@H]2Cc2ccc(OCc3cn(Cc4ccc(F)cc4)nn3)c(OC)c2)cc1OC :: true (1)

----------
Below, each entry is listed alongside its reported pIC50.
# System: Toxoplasma gondii
# test_method_notes: Antiparasitic activity against Toxoplasma gondii RH tachyzoites by MTT assay
# Assay type: functional, organism-based
pIC50: −log10 of the molar value.
property_measured: pIC50

1. COc1ccc(C[C@H]2COC(=O)[C@@H]2Cc2ccc(OCc3cn(Cc4ccccc4)nn3)c(OC)c2)cc1OC :: 3.19
2. COC(=O)[C@@H](NC(=O)CCC(=O)Oc1ccc(C[C@H]2C(=O)OC[C@@H]2Cc2ccc(OC)c(OC)c2)cc1OC)c1ccccc1 :: 4.07
3. COc1ccc(C[C@H]2COC(=O)[C@@H]2Cc2ccc(OCC(=O)N3CCCCC3)c(OC)c2)cc1OC :: 3.51
4. COc1cc(C[C@H]2C(=O)OC[C@@H]2Cc2ccc(OC)c(OC)c2)ccc1O [ARCTIGENIN] :: 3.23
5. COc1ccc(C[C@H]2COC(=O)[C@@H]2Cc2ccc(OCc3cn(-c4ccccc4)nn3)c(OC)c2)cc1OC :: 3.87
6. COc1ccc(C[C@H]2COC(=O)[C@@H]2Cc2ccc(OCc3cn(Cc4ccccc4Cl)nn3)c(OC)c2)cc1OC :: 4.61
7. COc1ccc(C[C@H]2COC(=O)[C@@H]2Cc2ccc(OCc3cn(Cc4ccc(Cl)cc4)nn3)c(OC)c2)cc1OC :: 3.60
8. COc1ccc(C[C@H]2COC(=O)[C@@H]2Cc2ccc(OCc3cn(-c4cccc(Cl)c4)nn3)c(OC)c2)cc1OC :: 3.57
9. CCN1CCN(C(=O)CCC(=O)Oc2ccc(C[C@H]3C(=O)OC[C@@H]3Cc3ccc(OC)c(OC)c3)cc2OC)CC1 :: 4.03
10. CCN(CC)C(=O)CCC(=O)Oc1ccc(C[C@H]2C(=O)OC[C@@H]2Cc2ccc(OC)c(OC)c2)cc1OC :: 3.69
11. COC(=O)[C@@H](NC(=O)CCC(=O)Oc1ccc(C[C@H]2C(=O)OC[C@@H]2Cc2ccc(OC)c(OC)c2)cc1OC)C(C)C :: 4.49
12. COC(=O)CNC(=O)CCC(=O)Oc1ccc(C[C@H]2C(=O)OC[C@@H]2Cc2ccc(OC)c(OC)c2)cc1OC :: 3.80
13. CCN(CC)C(=O)COc1ccc(C[C@H]2C(=O)OC[C@@H]2Cc2ccc(OC)c(OC)c2)cc1OC :: 3.41
14. COc1ccc(C[C@H]2COC(=O)[C@@H]2Cc2ccc(OCC(=O)Nc3ccccc3)c(OC)c2)cc1OC :: 4.39
15. COC(=O)[C@@H](Cc1ccccc1)NC(=O)CCC(=O)Oc1ccc(C[C@H]2C(=O)OC[C@@H]2Cc2ccc(OC)c(OC)c2)cc1OC :: 3.65
16. COc1ccc(C[C@H]2COC(=O)[C@@H]2Cc2ccc(OC(=O)CCC(=O)N3CCCCC3)c(OC)c2)cc1OC :: 4.39

----------
# Tested on: Toxoplasma gondii
# test_method_notes: Antiparasitic activity against Toxoplasma gondii RH tachyzoites by MTT assay
# Format: functional, organism-based
Label label 1 when IC50 is strictly below 300 µM; at or above that, label label 0.

1. COc1ccc(C[C@H]2COC(=O)[C@@H]2Cc2ccc(OCc3cn(-c4ccc(Br)cc4)nn3)c(OC)c2)cc1OC :: label 0
2. COc1ccc(C[C@H]2COC(=O)[C@@H]2Cc2ccc(OCc3cn(-c4ccc(C)cc4)nn3)c(OC)c2)cc1OC :: label 0
3. COc1ccc(C[C@H]2COC(=O)[C@@H]2Cc2ccc(OCC(=O)N3CCCC3)c(OC)c2)cc1OC :: label 0
4. COC(=O)[C@H](CCSC)NC(=O)CCC(=O)Oc1ccc(C[C@H]2C(=O)OC[C@@H]2Cc2ccc(OC)c(OC)c2)cc1OC :: label 1
5. COc1ccc(C[C@H]2COC(=O)[C@@H]2Cc2ccc(OCC(=O)N3CCOCC3)c(OC)c2)cc1OC :: label 0
6. COc1ccc(C[C@H]2COC(=O)[C@@H]2Cc2ccc(OCC(=O)Nc3ccc(C)cc3)c(OC)c2)cc1OC :: label 0
7. COc1ccc(C[C@H]2COC(=O)[C@@H]2Cc2ccc(OCc3cn(-c4ccc(Cl)cc4)nn3)c(OC)c2)cc1OC :: label 1
8. COc1ccc(C[C@H]2COC(=O)[C@@H]2Cc2ccc(OCc3cn(-c4ccc(F)cc4)nn3)c(OC)c2)cc1OC :: label 0

----------
Below, each entry is listed alongside its reported selectivity ratio.
# test_method_notes: Selectivity index, ratio of IC50 for human HeLa cells to ratio of IC50 for Toxoplasma gondii RH tachyzoites
# Assay type: toxicity
# test_context: HeLa cells versus Toxoplasma gondii RH tachyzoites, read-out: Ratio IC50
property_measured: selectivity ratio

1) COc1ccc(C[C@H]2COC(=O)[C@@H]2Cc2ccc(OCc3cn(Cc4ccc(Cl)cc4)nn3)c(OC)c2)cc1OC :: 0.97
2) CCN1CCN(C(=O)CCC(=O)Oc2ccc(C[C@H]3C(=O)OC[C@@H]3Cc3ccc(OC)c(OC)c3)cc2OC)CC1 :: 2.01
3) COC(=O)[C@@H](NC(=O)CCC(=O)Oc1ccc(C[C@H]2C(=O)OC[C@@H]2Cc2ccc(OC)c(OC)c2)cc1OC)c1ccccc1 :: 0.92
4) COc1ccc(C[C@H]2COC(=O)[C@@H]2Cc2ccc(OCC(=O)N3CCCCC3)c(OC)c2)cc1OC :: 0.94
5) CCN(CC)C(=O)COc1ccc(C[C@H]2C(=O)OC[C@@H]2Cc2ccc(OC)c(OC)c2)cc1OC :: 0.48
6) COC(=O)CC[C@H](NC(=O)CCC(=O)Oc1ccc(C[C@H]2C(=O)OC[C@@H]2Cc2ccc(OC)c(OC)c2)cc1OC)C(=O)OC :: 0.61
7) COc1ccc(C[C@H]2COC(=O)[C@@H]2Cc2ccc(OCc3cn(Cc4ccccc4)nn3)c(OC)c2)cc1OC :: 0.53
8) COc1ccc(C[C@H]2COC(=O)[C@@H]2Cc2ccc(OCc3cn(-c4cccc(Cl)c4)nn3)c(OC)c2)cc1OC :: 1.83
9) COC(=O)[C@H](CC(C)C)NC(=O)CCC(=O)Oc1ccc(C[C@H]2C(=O)OC[C@@H]2Cc2ccc(OC)c(OC)c2)cc1OC :: 0.85
10) COc1ccc(C[C@H]2COC(=O)[C@@H]2Cc2ccc(OCc3cn(-c4ccc(Br)cc4)nn3)c(OC)c2)cc1OC :: 0.3
